Test system: Plasmodium berghei
EXPERIMENT_DESCRIPTION: Screen against P. berghei liver stage (PbLuc), transformed with Luciferase, at 2uM
Type: functional, HepG2
TEST_PARAMETERS: tested at 2 uM
The campaign covered roughly 68,000 compounds. About 2,700 (4%) showed an effect of 50% or more. The list comes from a sample in which strong results are over-represented; it also holds close analogues and randomly drawn compounds.
Entries and their INHIBITION values follow.
Quick note: give the figure in %, leave out the unit.

INSERT INTO measurements (compound, measure_name, measured_number) VALUES
  ('CCC1(c2ccc(NS(=O)(=O)N(C)C)cc2)CCC(=O)NC1=O (centres undefined)', 'INHIBITION', -11.81);

Write down INHIBITION measured for item O=C(CCC(=O)N1CCOCC1)NCc1cccnc1-n1cccn1 -15.37

Write down INHIBITION measured for item COC(=O)CC(c1cccnc1)c1oc(C)cc(=O)c1O (centres undefined) 24.02

Write down INHIBITION measured for item COc1ccc(-c2nc3c([nH]2)CCCNC3=O)cc1OC 75.76

Write down INHIBITION measured for item CN(Cc1ccco1)Cc1cnc2n1CCN(S(C)(=O)=O)CC2 9.1

Write down INHIBITION measured for item CN(C)CCN1CCc2ncc(CN(C)Cc3ccco3)n2CC1 52.05

Write down INHIBITION measured for item O=C(NCCc1ccsc1)c1ccoc1 52.08

###

Test system: Plasmodium berghei
EXPERIMENT_DESCRIPTION: Screen against P. berghei liver stage (PbLuc), transformed with Luciferase, at 2uM
Format: functional, HepG2
TEST_PARAMETERS: tested at 2 uM
In all, about 68,000 compounds went through this assay and about 2,700 (4%) showed an effect of 50% or more. Only a selection was taken, and strong results are over-represented in it overall.
MEASURE_NAME: INHIBITION (%)
Quick note: give the figure in %, leave out the unit.

Send back Plasmodium berghei INHIBITION of O=C(NCc1cccc(F)c1F)c1cc(CN2CCCC(O)C2)on1 (stereo not given) only. -81.33

Send back Plasmodium berghei INHIBITION of CCOc1ccc(Br)cc1-c1cc(N)[nH]n1 only. 9.66

Send back Plasmodium berghei INHIBITION of O=C(NCc1ccc(Cl)s1)c1cc(CN2CCCC(O)C2)on1 (stereo not given) only. 4.38

###

Test system: Plasmodium berghei
EXPERIMENT_DESCRIPTION: Screen against P. berghei liver stage (PbLuc), transformed with Luciferase, at 2uM
Assay type: functional, HepG2
TEST_PARAMETERS: tested at 2 uM
The campaign covered roughly 68,000 compounds. About 2,700 (4%) showed an effect of 50% or more. The list comes from a sample in which strong results are over-represented; it also holds close analogues and randomly drawn compounds.
Label 1.0 when INHIBITION is at or above -20%; otherwise label 0.0.

// known answers, use as guide
INSERT INTO measurements (compound, answer_label) VALUES
  ('CCc1n[nH]c(C(=O)N2CCCC3(CN(C)C(=O)O3)C2)c1C (stereo unspecified)', 1.0),
  ('COCCc1noc(CN2CCCc3cccc(OC)c32)n1', 0.0),
  ('COCCN1CCOCC12CCN(C(=O)c1ccncc1)CC2', 0.0);

Decide: INHIBITION of CN1CCc2[nH]nc(C(=O)N3CCCC4(CN(C)C(=O)O4)C3)c2C1 (stereo unspecified) >= -20%? 1.0

Decide: INHIBITION of Cc1nc[nH]c1C(=O)N1CCCC2(CN(C)C(=O)O2)C1 (stereo unspecified) >= -20%? 1.0

Decide: INHIBITION of COc1cccc2c1N(Cc1noc(C3CC3)n1)CCC2 >= -20%? 1.0

###

Test system: Plasmodium berghei
EXPERIMENT_DESCRIPTION: Screen against P. berghei liver stage (PbLuc), transformed with Luciferase, at 2uM
Assay type: functional, HepG2
TEST_PARAMETERS: tested at 2 uM
Screen size: about 68,000 compounds; about 2,700 (4%) showed an effect of 50% or more. The sample as a whole holds a higher share of strong results than the screen did.
Entries and their INHIBITION values follow.
# output: numeric value plus its unit

INSERT INTO assay_data (compound, measure_name, result) VALUES
  ('CCc1ccc(CN2CCCn3c(nc(Cn4ccnc4)cc3=O)C2)o1', 'INHIBITION', '54.56%'),
  ('Cc1ccc(Nc2cc(N3CCN(S(C)(=O)=O)CC3)nc(C)n2)cc1', 'INHIBITION', '51.2%');

Write down INHIBITION measured for item CCc1nc(CN2CCCN(C(=O)c3occc3C)CC2)cs1 21.52%

Write down INHIBITION measured for item COC(=O)C1CCCN1C(=O)c1ccc(Br)cc1F (stereo unspecified) 61.96%

Write down INHIBITION measured for item CN1C[C@@H](NC(=O)c2ccccc2)C[C@H]1c1nc(-c2cnccn2)no1 23.26%

Write down INHIBITION measured for item CNc1ncc(CN(C)C(=O)CCc2cc3n(n2)CCCNC3)cn1 20.76%

Write down INHIBITION measured for item Cc1nc(CNCc2ccc(OC34CCCN(CC3)C4)cc2)n[nH]1 (stereo unspecified) -2.62%

###

System: Plasmodium berghei
EXPERIMENT_DESCRIPTION: Screen against P. berghei liver stage (PbLuc), transformed with Luciferase, at 2uM
Format: functional, HepG2
TEST_PARAMETERS: tested at 2 uM
About 2,700 (4%) of roughly 68,000 compounds showed an effect of 50% or more. This excerpt belongs to a sample that is enriched for strong results.
MEASURE_NAME: INHIBITION (%)
Quick note: give the figure in %, leave out the unit.

Known results for compounds:
INSERT INTO assay_data (compound, measure_name, measured_number) VALUES
  ('CCCOC(=O)C(C)Sc1nnnn1C1CCOCC1 (configuration not stated)', 'INHIBITION', 71.4),
  ('CC(Sc1nnnn1C1CCOCC1)C(=O)NC1CCCCC1 (configuration not stated)', 'INHIBITION', -33.07),
  ('CC(Sc1nnnn1C1CCOCC1)C(F)(F)F (configuration not stated)', 'INHIBITION', 5.55),
  ('CCN1CCC(NC(=O)CN2CCCC2Cn2nc(C)nc2C)CC1 (configuration not stated)', 'INHIBITION', -2.82),
  ('O=C(c1cc(-c2ccco2)nc2c(Cl)cccc12)N1CC[C@H]2CNC[C@H]21', 'INHIBITION', 53.98),
  ('CCCC(C)Sc1nnnn1C1CCOCC1 (configuration not stated)', 'INHIBITION', 61.27),
  ('CC(C)OCCSc1nnnn1C1CCOCC1', 'INHIBITION', 17.37),
  ('CNS(=O)(=O)c1ccc(CNC(=O)Nc2cn[nH]c2)cc1', 'INHIBITION', 2.07),
  ('COC(=O)C(C)Sc1nnnn1C1CCOCC1 (configuration not stated)', 'INHIBITION', -53.55),
  ('c1cc2nccc(CC3CCCN(Cc4c[nH]cn4)CC3)c2cn1 (configuration not stated)', 'INHIBITION', -0.83);

Write down INHIBITION measured for item Cc1cc(C)n(CC(C)NC(=O)C2(c3ccccc3F)CC2)n1 (configuration not stated) -45.89

Write down INHIBITION measured for item Cc1nc(C)n(CC2CCCN2CC(=O)Nc2cc(C)on2)n1 (configuration not stated) -1.02

###

System: Plasmodium berghei
EXPERIMENT_DESCRIPTION: Screen against P. berghei liver stage (PbLuc), transformed with Luciferase, at 2uM
Type: functional, HepG2
TEST_PARAMETERS: tested at 2 uM
Out of some 68,000 compounds screened, about 2,700 (4%) showed an effect of 50% or more. This is one part of a sample in which strong results are shown more often than they occur.
MEASURE_NAME: INHIBITION

Known results for compounds:
INSERT INTO measurements (compound, result) VALUES
  ('Cc1ncsc1CCN(C)C(=O)CN1CC2(CCCC2)CC1=O', '52.3%'),
  ('CC(NC(=O)NCCCN(C)C)c1ccc2c(c1)CCC(=O)N2 (configuration not stated)', '2.08%'),
  ('CC(NC(=O)NCc1cccs1)c1ccc2c(c1)CCC(=O)N2 (configuration not stated)', '16.84%');

Send back Plasmodium berghei INHIBITION of Cc1ncsc1CCN(C)C(=O)CN1CCCCC1=O only. 17.2%

Send back Plasmodium berghei INHIBITION of CSCCc1n[nH]c2c1CN(S(=O)(=O)c1c(C)nn(C)c1C)CC2 only. 59.8%

Send back Plasmodium berghei INHIBITION of CN(Cc1cscn1)C1CCN(C(=O)OC(C)(C)C)CC1 only. -33.82%

Send back Plasmodium berghei INHIBITION of Cn1cc(C(=O)N2CCCC(C(=O)CCc3ccccc3)C2)cn1 (configuration not stated) only. 18.12%
